- System: Aspergillus nidulans ATCC 38163 (strain L)
- measurement-protocol: Antifungal MIC determination, filamentous fungi spores
- Type: cell-based
- cond: strain L; spores
attribute-measured: MIC-0 (µg/mL)
Answers are plain numbers, in µg/mL.

INSERT INTO measurements (compound, data_value) VALUES
  ('CC(C)CCn1sc2ccccc2c1=O', 0.02),
  ('O=c1c2ccccc2sn1C1CCCCC1', 0.20),
  ('O=c1c2ccccc2sn1-c1cccc(Br)c1', 12.5);

I would be grateful if you could provide MIC-0 for each of the following entries.
1. O=c1c2ccccc2sn1C1CCCCCCC1
2. O=c1c2ccccc2sn1-c1ccccn1

A)
[0.05, 12.5]

---

- Test system: C. albicans ATCC 64124 (strain B)
- measurement-protocol: microbe, parasite or virus in culture
- Type: cell-based, Candida albicans
- cond: strain B; compounds 1-4n and AmB; 48 h, RPMI 1640
Kindly supply the reported MIC-0 values for the records listed here.
Numbers only, in µg/mL.

INSERT INTO results (molecule, result_unit, data_value) VALUES
  ('Cc1cc(C)cc(-n2sc3ccccc3c2=O)c1 [Compound 2j]', 'µg/mL', 6.25);

I would be grateful if you could provide MIC-0 for each of the following entries.
1. CCCCCCn1sc2ccccc2c1=O [Compound 3b]
2. O=c1c2ccccc2sn1-c1ccc(Br)cc1 [Compound 2d]
3. O=c1c2ccccc2sn1C1CCCCCCC1 [Compound 3n]
4. O=c1c2ccccc2sn1-c1cc(Br)cc(Br)c1 [Compound 2i]
5. CCCCCCCCn1sc2ccccc2c1=O [Compound 3c]

A)
1: 1.56; 2: 3.13; 3: 3.13; 4: 6.25; 5: 1.56

---

Kindly supply the reported MIC-0 values for the records listed here.
- System: C. albicans ATCC 64124 (strain B)
- measurement-protocol: microbe, parasite or virus in culture
- Assay type: cell-based, Candida albicans
- cond: strain B; compounds 1-4n and AmB; 48 h, RPMI 1640
Numbers only, in µg/mL.

INSERT INTO measurements (compound, result_unit, data_value) VALUES
  ('O=c1c2ccccc2sn1CCCc1ccccc1', 'µg/mL', 3.13),
  ('O=c1c2ccccc2[se]n1-c1ccccc1 [Compound 1, ebselen, reference compound]', 'µg/mL', 12.5),
  ('CC(C)c1cccc(-n2sc3ccccc3c2=O)c1', 'µg/mL', 3.13);

Kindly review the next compound as well.
Q) I have this compound here, CC(C)CCn1sc2ccccc2c1=O , and I need its recorded MIC-0.
A) 0.78

---

Kindly supply the reported MIC-0 values for the records listed here.
- System: C. albicans ATCC MYA-2876(S) (strain C)
- measurement-protocol: Antifungal MIC determination (CLSI M27-A3, 96-well)
- Assay type: cell-based, Candida albicans
- cond: strain C; compounds 1-4n and AmB; 48 h, RPMI 1640

INSERT INTO assay_data (molecule, tgt, data_value) VALUES
  ('O=c1c2ccccc2sn1-c1ccc(Cl)cc1', 'C. albicans ATCC MYA-2876(S) (strain C)', '12.5 µg/mL'),
  ('O=c1c2ccccc2[s+]([O-])n1C1CCCCCCC1 (centres unmarked)', 'C. albicans ATCC MYA-2876(S) (strain C)', '>12.5 µg/mL'),
  ('CC(C)Cn1sc2ccccc2c1=O', 'C. albicans ATCC MYA-2876(S) (strain C)', '0.78 µg/mL'),
  ('CCCCCn1sc2ccccc2c1=O', 'C. albicans ATCC MYA-2876(S) (strain C)', '0.78 µg/mL'),
  ('O=c1c2ccccc2[se]n1-c1ccccc1 [Compound 1, ebselen, reference compound]', 'C. albicans ATCC MYA-2876(S) (strain C)', '12.5 µg/mL');

I would be grateful if you could provide MIC-0 for each of the following entries.
1. O=c1c2ccccc2sn1-c1cccc(Br)c1
2. O=c1c2ccccc2sn1-c1ccc(Cl)cn1

A)
1: 12.5 µg/mL; 2: 12.5 µg/mL

I would be grateful if you could provide MIC-0 for each of the following entries.
1. CC(C)c1ccc(-n2sc3ccccc3c2=O)cc1
2. CC(C)Cn1c(=O)c2ccccc2[s+]1[O-] (centres unmarked)
3. O=c1c2ccccc2sn1CCc1ccccc1
4. Cc1cc(C)cc(-n2sc3ccccc3c2=O)c1

A)
1: 3.13 µg/mL; 2: >12.5 µg/mL; 3: 1.56 µg/mL; 4: 1.56 µg/mL

---

Kindly supply the reported MIC-0 values for the records listed here.
- Tested on: Aspergillus nidulans ATCC 38163 (strain L)
- measurement-protocol: Antifungal MIC determination, filamentous fungi spores
- Assay type: cell-based
- cond: strain L; spores
One number for each entry, in µg/mL.

Previously resolved entries follow.
INSERT INTO measurements (smiles_entry, tgt, data_value) VALUES
  ('CC(C)(C)n1sc2ccccc2c1=O', 'Aspergillus nidulans ATCC 38163 (strain L)', 0.10),
  ('O=c1c2ccccc2sn1C1CCCC1', 'Aspergillus nidulans ATCC 38163 (strain L)', 0.10),
  ('O=c1c2ccccc2sn1-c1ccccc1', 'Aspergillus nidulans ATCC 38163 (strain L)', 6.25),
  ('CC(C)Cn1sc2ccccc2c1=O', 'Aspergillus nidulans ATCC 38163 (strain L)', 0.02);

I would be grateful if you could provide MIC-0 for each of the following entries.
1. O=c1c2ccccc2sn1C1CCCCCC1
2. CC(C)c1cccc(-n2sc3ccccc3c2=O)c1
3. C#Cc1ccc(-n2sc3ccccc3c2=O)cc1
4. O=c1c2ccccc2sn1CCc1ccccc1
5. COc1cc(OC)cc(-n2sc3ccccc3c2=O)c1
6. O=c1c2ccccc2sn1-c1ccc(Cl)cc1

A)
1. 0.20
2. 12.5
3. 12.5
4. 0.20
5. 6.25
6. 6.25

---

Kindly supply the reported MIC-0 values for the records listed here.
- System: C. albicans ATCC MYA-2876(S) (strain C)
- measurement-protocol: Antifungal MIC determination (CLSI M27-A3, 96-well)
- Assay type: cell-based, Candida albicans
- cond: strain C; compounds 1-4n and AmB; 48 h, RPMI 1640
Answers are plain numbers, in µg/mL.

Previously resolved entries follow.
INSERT INTO assay_data (smiles_entry, data_value) VALUES
  ('O=c1c2ccccc2sn1-c1ccccn1', 12.5),
  ('O=c1c2ccccc2sn1-c1ccc(F)cc1', 3.13),
  ('O=c1c2ccccc2sn1C1CCCCC1', 3.13);

I would be grateful if you could provide MIC-0 for each of the following entries.
1. O=c1c2ccccc2sn1-c1ccc(Br)cc1
2. COc1cc(OC)cc(-n2sc3ccccc3c2=O)c1
3. O=c1c2ccccc2sn1C1CCCCCCC1

A)
[1.56, 3.13, 6.25]

---

- System: Candida glabrata ATCC 2001 (strain H)
- measurement-protocol: Antifungal MIC determination (CLSI M27-A3, 96-well)
- Type: cell-based
- cond: strain H; compounds 1-4n and AmB; 48 h, RPMI 1640
attribute-measured: MIC-0 (µg/mL)
Give bare numbers, in µg/mL.

I would be grateful if you could provide MIC-0 for each of the following entries.
1. CC(C)c1cccc(-n2sc3ccccc3c2=O)c1
2. O=c1c2ccccc2sn1-c1ccc(Br)cc1
3. Cc1cc(C)cc(-n2sc3ccccc3c2=O)c1
4. O=c1c2ccccc2sn1CCc1ccccc1
5. O=c1c2ccccc2sn1-c1ccc(Cl)cc1
6. O=c1c2ccccc2sn1C1CCCCCC1
7. CC(C)(C)n1sc2ccccc2c1=O
8. O=c1c2ccccc2sn1-c1cccc(Br)c1

A)
1: 3.13; 2: 6.25; 3: 12.5; 4: 1.56; 5: 6.25; 6: 3.13; 7: 1.56; 8: 12.5

I would be grateful if you could provide MIC-0 for each of the following entries.
1. O=c1c2ccccc2[se]n1-c1ccccc1 [Compound 1, ebselen, reference compound]
2. CC(C)c1ccc(-n2sc3ccccc3c2=O)cc1
3. O=c1c2ccccc2sn1CCCc1ccccc1
4. COc1cc(OC)cc(-n2sc3ccccc3c2=O)c1
5. O=c1c2ccccc2sn1-c1ccc(F)cc1
6. CCCCCn1sc2ccccc2c1=O
7. CC(C)Cn1sc2ccccc2c1=O

A)
1.56
3.13
1.56
6.25
6.25
1.56
1.56

I would be grateful if you could provide MIC-0 for each of the following entries.
1. CCCCCCCCn1sc2ccccc2c1=O
2. CC(C)CCn1sc2ccccc2c1=O
3. O=c1c2ccccc2sn1-c1ccccc1
4. O=c1c2ccccc2sn1C1CCCCCCC1

A)
1.56
1.56
6.25
3.13

Q) Look up MIC-0 with Candida glabrata ATCC 2001 (strain H) for this molecule: C[C@@H]1[C@H](O)[C@@H](C)/C=C/C=C/C=C/C=C/C=C/C=C/C=C/[C@H](O[C@@H]2O[C@H](C)[C@@H](O)[C@H](N)[C@@H]2O)C[C@@H]2O[C@](O)(C[C@@H](O)C[C@@H](O)[C@H](O)CC[C@@H](O)C[C@@H](O)CC(=O)O[C@H]1C)C[C@H](O)[C@H]2C(=O)O [AmB, amphotericin B, reference compound]
A) 1.95
